Test: Saturation solubility in water
Format: physicochemical
Conditions: water, thermodynamic from solid; maximum of 1% DMSO added, HPLC UV
quantity_measured: solubility (µg/mL)

CC[C@H](C)[C@H](NC(=O)[C@@]1(NC(=O)[C@H](Cc2ccc(OP(=O)(O)O)cc2)NC(=O)OCc2ccccc2)CCc2[nH]c3c(Cl)cc(Cl)cc3c2C1)C(N)=O | 151

P. CCC(C)[C@H](NC(=O)OCc1ccccc1)C(=O)N[C@]1(C(=O)N[C@H](C(N)=S)C(C)CC)CCc2[nH]c3c(Cl)cc(Cl)cc3c2C1 (stereo partly shown)
Q. CCC(C)C(NC(=O)C1(NC(=O)C(CCc2ccc(O)cc2)NC(=O)OCc2ccccc2)CCc2[nH]c3c(Cl)cc(Cl)cc3c2C1)C(N)=O (stereo not shown) [Example 303 from WO 03/051837 A2, reference compound]
Identify the entry with the smaller solubility: P or Q . Write the label of whichever entry you select. Q

---

Experiment: Metabolic stability in rat liver microsomes
Assay type: in vitro ADME
Settings: 10 μM, 37° C., NADPH
quantity_measured: recovery at 10 μM (%)

CCC(C)[C@H](NC(=O)Cc1ccccc1F)C(=O)N[C@]1(C(=O)N[C@H](C(N)=S)C(C)CC)CCc2[nH]c3c(Cl)cc(F)cc3c2C1 (some centres unmarked) [Compound 68] | 80
CCC(C)[C@H](NC(=O)Cc1ccccc1F)C(=O)N[C@]1(C(=O)N[C@H](C(N)=S)C(C)CC)CCc2[nH]c3c(C(F)(F)F)cccc3c2C1 (some centres unmarked) [Compound 76] | 69

---

Target: rat LHRH receptor (Rattus norvegicus, UniProt P30969)
Construct: expressed in transfected cells; host or cells: LTK cells (mouse fibroblasts, ATCC CCL-1.3)
Sequence (P30969 whole entry): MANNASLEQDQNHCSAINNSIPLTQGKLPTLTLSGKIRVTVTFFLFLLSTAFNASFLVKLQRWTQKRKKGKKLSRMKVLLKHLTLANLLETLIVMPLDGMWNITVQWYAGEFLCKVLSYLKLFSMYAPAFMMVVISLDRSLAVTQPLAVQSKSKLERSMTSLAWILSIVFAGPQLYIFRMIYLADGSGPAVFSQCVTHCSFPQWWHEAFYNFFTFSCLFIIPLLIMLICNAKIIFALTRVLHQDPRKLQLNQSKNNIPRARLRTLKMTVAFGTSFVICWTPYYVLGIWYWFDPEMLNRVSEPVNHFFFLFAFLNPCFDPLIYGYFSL
Assay: LHRH receptor-ligand binding assay (transfected LTK cells)
Conditions: LTK cells transfected with rat LHRH receptor, 125I-triptorelin tracer, 37° C., 60 min; read-out: Binding to r-LHRHR EC50
Counter-ions that a name gives are not always drawn.
quantity_measured: EC50 (nM)

Reference set (4 entries):
CC(C)[C@H](NC(=O)[C@@]1(NC(=O)[C@H](CCCCN)NC(=O)CCc2ccc(F)cc2)CCc2[nH]c3c(Cl)cc(Cl)cc3c2C1)C(N)=O [Compound 17, trifluoroacetate] | 525
CCC(C)[C@H](NC(=O)[C@@]1(NC(=O)[C@@H](NC(=O)Cc2cccc(F)c2)C(C)CC)CCc2[nH]c3c(Cl)cc(Cl)cc3c2C1)C(N)=O (stereo partly drawn) | 98.3
CCC(C)[C@H](NC(=O)[C@@]1(NC(=O)[C@H](CCc2ccc(O)cc2)NC(=O)CCc2ccccc2F)CCc2[nH]c3c(Cl)cc(Cl)cc3c2C1)C(N)=O (stereo partly drawn) | 24.6
CCC(C)[C@H](NC(=O)[C@@]1(NC(=O)[C@H](CCc2ccc(OC(=O)OCc3ccccc3)cc2)NC(=O)OCc2ccccc2)CCc2[nH]c3c(Cl)cc(Cl)cc3c2C1)C(N)=O (stereo partly drawn) | 45.3

a. CCC(C)[C@H](NC(=O)OCc1ccc(Cl)cc1)C(=O)N[C@]1(C(=O)N[C@H](C(N)=O)C(C)C)CCc2[nH]c3c(Cl)cc(Cl)cc3c2C1 (stereo partly drawn)
b. CCC(C)[C@H](NC(=O)[C@@]1(NC(=O)[C@@H](NC(=O)OCc2ccc(Cl)cc2)C(C)CC)CCc2[nH]c3c(Cl)cc(Cl)cc3c2C1)C(N)=O (stereo partly drawn)
c. CCC(C)[C@H](NC(=O)[C@@]1(NC(=O)[C@H](CCc2ccc(O)cc2)NC(=O)OCc2ccccc2)CCc2[nH]c3c(Cl)cc(Cl)cc3c2C1)C(N)=S (stereo partly drawn)
d. CCC(C)[C@H](NC(=O)OCc1ccccc1)C(=O)N[C@]1(C(=O)N[C@H](C(N)=S)C(C)CC)CCc2[nH]c3c(Cl)cc(F)cc3c2C1 (stereo partly drawn)
e. CCC(C)[C@H](NC(=O)[C@@]1(NC(=O)[C@H](CCc2ccc(OCCOCCOCCOCCOC)cc2)NC(=O)OCc2ccccc2)CCc2[nH]c3c(Cl)cc(Cl)cc3c2C1)C(N)=S (stereo partly drawn)
List these items ordered by EC50, big to small. Response field: labels, in requested order. a, b, e, c, d
(a: 205 nM, b: 47.2 nM, e: 13.5 nM, c: 7.5 nM, d: 4.2 nM)
